Tgt: T1, XtrLin28b CSD H68A (Xenopus tropicalis, UniProt B4F6I0 27-114, H68A)
T1 sequence: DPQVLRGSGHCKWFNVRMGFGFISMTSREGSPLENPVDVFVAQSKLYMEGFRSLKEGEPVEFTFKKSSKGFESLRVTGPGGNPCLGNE
Method summary: ITC
Assay metric: Kd (nM)
Please state the figure in nM; there is no need to write the unit.

The recorded Kd for entry GUCACACC (ssRNA) [rlet-7f5] equals 540
